# study.system: Tyrosinase (Agaricus bisporus, UniProt O42713)
# Sequence (O42713 whole entry): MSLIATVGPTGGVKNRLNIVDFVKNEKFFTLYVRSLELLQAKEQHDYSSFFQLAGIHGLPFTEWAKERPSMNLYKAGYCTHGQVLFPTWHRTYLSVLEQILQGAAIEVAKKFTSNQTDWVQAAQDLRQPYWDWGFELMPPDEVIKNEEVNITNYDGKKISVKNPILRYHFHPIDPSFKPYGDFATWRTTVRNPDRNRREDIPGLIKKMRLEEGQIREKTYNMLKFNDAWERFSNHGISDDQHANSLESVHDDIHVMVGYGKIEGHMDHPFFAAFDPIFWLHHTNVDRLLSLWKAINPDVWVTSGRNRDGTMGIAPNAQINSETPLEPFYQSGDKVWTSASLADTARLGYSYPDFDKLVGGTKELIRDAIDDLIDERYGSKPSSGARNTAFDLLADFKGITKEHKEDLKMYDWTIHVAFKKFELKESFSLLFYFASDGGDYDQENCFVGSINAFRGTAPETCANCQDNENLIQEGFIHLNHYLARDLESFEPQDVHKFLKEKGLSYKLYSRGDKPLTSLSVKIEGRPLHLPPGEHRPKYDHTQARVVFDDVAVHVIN
# procedure.summary: Inhibition of mushroom tyrosinase using L-dopa as substrate assessed as reduction in dopachrome production after 20 mins by spectrophotometry
Where a SMILES comes first, the peptide text is derived from it.
reported.endpoint: IC50 (µM)

compound	IC50 (µM)
CC(C)[C@H](N)C(=O)N[C@H](C(=O)N[C@@H](CCCCN)C(=O)N[C@@H](CS)C(=O)N[C@@H](CO)C(=O)N[C@@H](Cc1ccccc1)C(=O)N[C@@H](CCCNC(=N)N)C(=O)N1CCC[C@H]1C(=O)NCC(=O)N[C@@H](CO)C(=O)N1CCC[C@H]1C(=O)N[C@@H](C)C(=O)N1CCC[C@H]1C(=O)N[C@@H](CCCNC(=N)N)C(=O)N[C@@H](CS)C(=O)N[C@@H](CCCCN)C(=O)O)C(C)C (H-VVKCSFRPGSPAPRCK-OH)	199

P. CC(C)[C@H](NC(=O)[C@H](CCCNC(=N)N)NC(=O)[C@H](Cc1ccccc1)NC(=O)[C@H](CS)NC(=O)[C@H](CCCNC(=N)N)NC(=O)[C@@H](N)[C@@H](C)O)C(=O)N[C@@H](CS)C(=O)N[C@@H](CO)C(=O)O (H-TRCFRVCS-OH)
Q. CC(C)[C@H](NC(=O)[C@H](CCCNC(=N)N)NC(=O)[C@H](CS)NC(=O)[C@H](CO)NC(=O)[C@H](CCCNC(=N)N)NC(=O)[C@H](Cc1ccccc1)NC(=O)[C@@H](N)Cc1ccccc1)C(=O)N[C@@H](CS)C(=O)O (H-FFRSCRVC-OH)
QUERY: I'm curious whether P or Q has the smaller IC50 number. Which is it? Kindly state the label of the option you pick.
RESULT: P

---

# System: B16
# procedure.summary: Cytotoxicity against mouse B16 cells up to 150 uM by MTT assay relative to control
# Format: cell-based
Where a SMILES comes first, the peptide text is derived from it.
The reader will find reported Activity values listed item by item below.
Reply with just the number (in %).

For orientation, consider the following solved cases.
molecule	display.unit	Activity
CC(C)[C@H](NC(=O)[C@H](CO)NC(=O)[C@H](CCCNC(=N)N)NC(=O)[C@H](CS)NC(=O)[C@H](CO)NC(=O)[C@@H](NC(=O)[C@H](CCCNC(=N)N)NC(=O)[C@H](Cc1ccccc1)NC(=O)[C@@H](N)Cc1ccccc1)[C@@H](C)O)C(=O)N[C@@H](CS)C(=O)O (H-FFRTSCRSVC-OH)	%	9
CC[C@H](C)[C@H](NC(=O)[C@H](CS)NC(=O)[C@@H](NC(=O)[C@@H](NC(=O)[C@H](CCCNC(=N)N)NC(=O)[C@H](C)NC(=O)[C@@H](NC(=O)[C@H](CC(N)=O)NC(=O)[C@@H](NC(=O)[C@H](CCCNC(=N)N)NC(=O)[C@H](Cc1ccccc1)NC(=O)[C@H](CCCNC(=N)N)NC(=O)[C@@H](NC(=O)[C@@H](N)CS)C(C)C)[C@@H](C)O)[C@@H](C)O)[C@@H](C)O)C(C)C)C(=O)N[C@@H](C)C(=O)N1CCC[C@H]1C(=O)O (H-CVRFRTNTARTVCIAP-OH)	%	13
CC(C)[C@H](NC(=O)[C@H](CO)NC(=O)[C@H](CCCNC(=N)N)NC(=O)[C@H](CS)NC(=O)[C@@H](NC(=O)[C@H](CCCNC(=N)N)NC(=O)[C@@H](N)Cc1ccccc1)[C@@H](C)O)C(=O)N[C@@H](CS)C(=O)O (H-FRTCRSVC-OH)	%	3
CC(C)[C@H](NC(=O)[C@H](CCCNC(=N)N)NC(=O)[C@H](Cc1ccccc1)NC(=O)[C@H](CS)NC(=O)[C@H](CCCNC(=N)N)NC(=O)[C@@H](N)[C@@H](C)O)C(=O)N[C@@H](CS)C(=O)N[C@@H](CO)C(=O)O (H-TRCFRVCS-OH)	%	10
CC(C)[C@H](NC(=O)[C@H](CCCNC(=N)N)NC(=O)[C@H](Cc1ccccc1)NC(=O)[C@H](CS)NC(=O)[C@H](CCCNC(=N)N)NC(=O)[C@H](CO)NC(=O)[C@@H](N)[C@@H](C)O)C(=O)N[C@@H](CS)C(=O)O (H-TSRCFRVC-OH)	%	11
OC[C@H]1O[C@@H](Oc2ccc(O)cc2)[C@H](O)[C@@H](O)[C@@H]1O [ARBUTIN]	%	29

--- query ---
QUERY: Give me measured Activity, please, for this molecule: CC[C@H](C)[C@H](NC(=O)[C@H](C)NC(=O)[C@@H]1CCCN1C(=O)[C@@H](NC(=O)[C@@H](N)Cc1ccccc1)C(C)C)C(=O)N[C@@H](CC(C)C)C(=O)N[C@@H](CS)C(=O)N[C@@H](CO)C(=O)N[C@H](C(=O)N[C@@H](CC(C)C)C(=O)N[C@@H](CCCCN)C(=O)N[C@H](C(=O)N[C@@H](CS)C(=O)O)[C@@H](C)O)[C@@H](C)CC (H-FVPAILCSILKTC-OH)
RESULT: 12
